target or system: T1, human insulin receptor isoform A with C-terminal C9 tag (human, UniProt P06213 28-1382)
T1 construct: membranes of stably transfected HEK293 cells; also called hIR-A; human IR-A
experiment summary: 125I-insulin competition SPA, hIR-A membranes, 0.001% NP-40
Recorded measurements of Ki, one per entry
Field format: number, assumed nM, no unit text.

Data point: INS Analog 24 (other, single-chain insulin B-L2-A-L1-VHH fusion; also called Ex. 24) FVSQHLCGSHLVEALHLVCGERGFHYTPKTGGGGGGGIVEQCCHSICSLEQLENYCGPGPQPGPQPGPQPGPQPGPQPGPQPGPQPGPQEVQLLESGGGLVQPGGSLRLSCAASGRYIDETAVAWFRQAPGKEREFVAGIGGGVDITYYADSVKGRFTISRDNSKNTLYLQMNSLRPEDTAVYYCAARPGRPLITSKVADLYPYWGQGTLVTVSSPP ; Ki = 21.8

Data point: INS Analog 14 (other, single-chain insulin B-L2-A-L1-VHH fusion; also called Ex. 14) FVSQHLCGSHLVEALRLVCGERGFFYTPKTGGGGGGGIVEQCCTSICSLYQLENYCGPGPAPGPAPGPAPGPAPGPAPGPAPGPAPGPAEVQLLESGGGLVQPGGSLRLSCAASGRYIDETAVAWFRQAPGKEREFVAGIGGGVDITYYADSVKGRFTISRDNSKNTLYLQMNSLRPEDTAVYYCAARPGRPLITSKVADLYPYWGQGTLVTVSSPP ; Ki = 163

Data point: INS Analog 22 (other, single-chain insulin B-L2-A-L1-VHH fusion; also called Ex. 22) FVSQHLCGSHLVEALHLVCGERGFHYTPKTGGGGGGGIVEQCCHSICSLYQLENYCGPGPQPGPQPGPQPGPQPGPQPGPQPGPQPGPQEVQLLESGGGLVQPGGSLRLSCAASGRYIDETAVAWFRQAPGKEREFVAGIGGGVDITYYADSVKGRFTISRDNSKNTLYLQMNSLRPEDTAVYYCAARPGRPLITSKVADLYPYWGQGTLVTVSSPP ; Ki = 17.1

src = patent US20220378931A1
